# log10(IC50) per record follows
target: human Src enzyme (Homo sapiens, UniProt P12931); construct: purchased Carna Biosciences, Inc. 08-173; assay: Src enzyme inhibitory activity (time-resolved fluorometry, biotinylated peptide phosphorylation); assay type: biochemical; conditions: read-out: SRC_IC50
Sequence (P12931 whole entry): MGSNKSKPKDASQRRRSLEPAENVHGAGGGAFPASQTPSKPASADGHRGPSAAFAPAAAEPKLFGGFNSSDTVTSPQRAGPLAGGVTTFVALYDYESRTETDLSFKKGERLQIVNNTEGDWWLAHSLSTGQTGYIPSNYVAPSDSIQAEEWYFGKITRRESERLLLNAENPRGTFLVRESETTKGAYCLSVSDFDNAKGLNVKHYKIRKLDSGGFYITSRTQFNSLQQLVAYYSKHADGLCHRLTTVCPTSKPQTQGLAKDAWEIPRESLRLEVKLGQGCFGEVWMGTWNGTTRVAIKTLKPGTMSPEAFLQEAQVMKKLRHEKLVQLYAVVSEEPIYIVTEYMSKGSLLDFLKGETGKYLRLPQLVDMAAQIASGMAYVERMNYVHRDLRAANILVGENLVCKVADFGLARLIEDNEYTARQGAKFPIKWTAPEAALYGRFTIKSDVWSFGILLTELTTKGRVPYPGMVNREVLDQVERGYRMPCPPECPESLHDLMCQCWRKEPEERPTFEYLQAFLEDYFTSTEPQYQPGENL
REPORTED_METRIC: log10(IC50) (log10 of the value in nM)

1. Cc1cc(-n2ncc(C(=O)c3cc4cc(OC5CCN(C(C)C)CC5)c(N5C(=O)N[C@@H](Cc6ccccc6)C5=O)cc4[nH]3)c2N)ccc1Oc1ccccc1F ... 2.98
2. CC(=O)N1CCC(c2cc3[nH]c(C(=O)c4cnn(-c5cnc(Oc6c(F)cccc6F)cc5C)c4N)cc3cc2C)CC1 ... 1.36
3. Cc1cc(-n2ncc(C(=O)c3cc4cc(OC5CCN(C6CCCC6)CC5)c(-c5ccccc5Cl)cc4[nH]3)c2N)ccc1Oc1ccccc1F ... 3.36
4. Cc1cc(Oc2ccccc2F)ccc1-n1ncc(C(=O)c2cc3cc(OCC(F)F)c(N4C(=O)[C@@H]5C[C@@H](O)CN5C4=O)cc3[nH]2)c1N ... 0.88
5. Cc1cc(Oc2c(F)cccc2F)ncc1-n1ncc(C(=O)c2cc3cc(OC4CCN(C5CS(=O)(=O)C5)CC4)c(-c4ccccc4Cl)cc3[nH]2)c1N ... 1.66
6. Cc1cc(Oc2c(F)cccc2F)ncc1-n1ncc(C(=O)c2cc3cc(C(C)C)c(NS(=O)(=O)N4C5CCC4COC5)cc3[nH]2)c1N ... 3.18
